All values here come from patent US20240391954A1.

target_desc: human MC4R (Homo sapiens)
Construct: host or cells: HEK-293 cells stably expressing the GScAMP22F split-luciferase cAMP sensor and hMC4R, G418 selection
Sequence (P32245 whole entry): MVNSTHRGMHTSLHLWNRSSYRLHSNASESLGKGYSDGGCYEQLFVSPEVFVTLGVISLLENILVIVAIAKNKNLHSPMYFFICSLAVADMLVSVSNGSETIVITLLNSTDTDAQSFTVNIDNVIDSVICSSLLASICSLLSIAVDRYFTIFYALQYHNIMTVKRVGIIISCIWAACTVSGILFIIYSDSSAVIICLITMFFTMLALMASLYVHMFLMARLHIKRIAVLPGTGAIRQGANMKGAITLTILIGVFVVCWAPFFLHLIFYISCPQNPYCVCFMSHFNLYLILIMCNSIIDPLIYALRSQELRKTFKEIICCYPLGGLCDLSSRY
procedure_summary: split-luciferase cAMP sensor assay, agonist mode (measurement window 1), hMC4R
Type: cell-based
stated_conditions: agonist mode, hMC4R stable cell line; read-out: MC4R cAMP EC50
Procedure: The stable cell lines were grown and maintained in selection media consisting of Dulbecco's modified Eagle media (DMEM) with 4.5 g/l D-glucose, and 4 mM L-glutamine (Thermo Fisher Scientific, Waltham, MA), supplemented with 10% fetal bovine serum, 100 units/ml penicillin, 100 μg/ml streptomycin, 2.5 μg/ml amphotericin B, 200 μg/ml hygromycin B (for positive selection of the GScAMP22f luciferase reporter), and Geneticin™ (G418) 700 μg/ml (for MC3R or MC4R selection). […]
Positions of bridges follow the written chain, without caps; N, C: chain ends. Non-standard residues stand in square brackets, D forms with d. Residues, ends and D or L forms follow the SMILES beside them. d2Nal = N[C@H](Cc1ccc2ccccc2c1)C(=O)O; Nle = CCCC[C@H](N)C(=O)O
result_type: EC50 (nM)
API: value field is a number in nM; no unit string.

The measured EC50 that CC(=O)N[C@@H](CCCNC(=N)N)C(=O)N[C@H]1CSSC[C@@H](C(N)=O)NC(=O)[C@H](Cc2c[nH]c3ccccc23)NC(=O)[C@H](CCCNC(=N)N)NC(=O)[C@@H](Cc2ccc3ccccc3c2)NC(=O)[C@@H]2CCCN2C(=O)[C@@H](C)NC1=O [CTX-2203] (Ac-RC[dA]P[d2Nal]RWC-NH2; disulfide 2-8 (inferred)) showed for human MC4R (Homo sapiens) is 12

The compound CC(=O)N[C@@H](CCCNC(=N)N)C(=O)N[C@H]1CSSC[C@@H](C(N)=O)NC(=O)[C@H](Cc2c[nH]c3ccccc23)NC(=O)[C@H](CCCNC(=N)N)NC(=O)[C@@H](Cc2c[nH]c3ccccc23)NC(=O)[C@H](CCCNC(=N)N)NC(=O)[C@@H](C)NC1=O [CTX-1274] (Ac-RC[dA]R[dW]RWC-NH2; disulfide 2-8) on human MC4R (Homo sapiens): EC50 was 1400

Form field EC50 for item CCCC[C@H](NC(=O)[C@H](CCCNC(=N)N)NC(C)=O)C(=O)N[C@H]1CSSC[C@@H](C(N)=O)NC(=O)[C@H](Cc2c[nH]c3ccccc23)NC(=O)[C@H](CCCNC(=N)N)NC(=O)[C@@H](Cc2ccc(OC)cc2)NC(=O)[C@H](CCCNC(=N)N)NC1=O [CTX-1614] (Ac-R[Nle]CR[dY](Me)RWC-NH2; disulfide 3-8 (inferred)) on human MC4R (Homo sapiens): 1.7

====

procedure_summary: Plasma protein binding (Centrifree ultrafiltration)
Type: in vitro ADME
stated_conditions: 1.0 uM
Positions of bridges follow the written chain, without caps; N, C: chain ends. Non-standard residues stand in square brackets, D forms with d. Residues, ends and D or L forms follow the SMILES beside them. dPhe(4-Br) = N[C@H](Cc1ccc(Br)cc1)C(=O)O; Nle = CCCC[C@H](N)C(=O)O; Aib = CC(C)(N)C(=O)O
Below, each entry is listed with its recorded fraction unbound at 5 min, 1 µM.

Take a look at these entries with their results.
molecule	fraction unbound at 5 min, 1 µM
CC(=O)N[C@@H](CCCNC(=N)N)C(=O)N[C@H]1CSSC[C@@H](C(N)=O)NC(=O)[C@H](Cc2c[nH]c3ccccc23)NC(=O)[C@H](CCCNC(=N)N)NC(=O)[C@@H](Cc2ccccc2)NC(=O)[C@H](CCCNC(N)=O)NC(=O)[C@@H](C)NC1=O	0.61
COc1ccc(C[C@H]2NC(=O)[C@H](CCCNC(=N)N)NC(=O)[C@@H](C)NC(=O)[C@@H](NC(=O)[C@H](CCCNC(=N)N)NC(C)=O)CSSC[C@@H](C(N)=O)NC(=O)[C@@H](Cc3c[nH]c4ccccc34)NC(=O)[C@H](CCCNC(=N)N)NC2=O)cc1 [CTX-1238] (Ac-RC[dA]R[dY](Me)R[dW]C-NH2; disulfide 2-8 (inferred))	0.53
CCCC[C@H](NC(=O)[C@H](CCCNC(=N)N)NC(C)=O)C(=O)N[C@H]1CSSC[C@@H](C(N)=O)NC(=O)[C@H](Cc2c[nH]c3ccccc23)NC(=O)[C@H](CCCNC(=N)N)NC(=O)[C@@H](Cc2ccccc2)NC(=O)[C@H](CCCNC(=N)N)NC1=O [CTX-1228, Arg-Nle-cyclo(Cys-Arg-D-Phe-Arg-Trp-Cys)] (Ac-R[Nle]CR[dF]RWC-NH2; disulfide 3-8 (inferred))	0.61
CC(=O)N[C@@H](CCCNC(=N)N)C(=O)N[C@H]1CSSC[C@@H](C(N)=O)NC(=O)[C@@H](Cc2c[nH]c3ccccc23)NC(=O)[C@H](CCCNC(=N)N)NC(=O)[C@@H](Cc2ccc(Br)cc2)NC(=O)[C@H](CCCNC(=N)N)NC(=O)C(C)(C)NC1=O [CTX-1246] (Ac-RC[Aib]R[dPhe(4-Br)]R[dW]C-NH2; disulfide 2-8 (inferred))	0.56
CCCC[C@H](NC(=O)[C@H](CCCNC(=N)N)NC(C)=O)C(=O)N[C@H]1CSSC[C@@H](C(N)=O)NC(=O)[C@H](Cc2c[nH]c3ccccc23)NC(=O)[C@H](CCCNC(=N)N)NC(=O)[C@@H](Cc2ccccc2)NC(=O)[C@H](Cc2c[nH]cn2)NC1=O [CTX-1227, Arg-Nle-cyclo(Cys-His-D-Phe-Arg-Trp-Cys)] (Ac-R[Nle]CH[dF]RWC-NH2; disulfide 3-8 (inferred))	0.53

Next:
fraction unbound at 5 min, 1 µM in this record for CC(=O)N[C@@H](CCCNC(=N)N)C(=O)N[C@H]1CSSC[C@@H](C(N)=O)NC(=O)[C@H](Cc2ccccc2)NC(=O)[C@H](CCCNC(=N)N)NC(=O)[C@@H](Cc2ccc(Br)cc2)NC(=O)[C@H](CCCNC(=N)N)NC(=O)[C@@H](C)NC1=O [CTX-1258] (Ac-RC[dA]R[dPhe(4-Br)]RFC-NH2; disulfide 2-8) : 0.5
